Known AC50 of a selection of compounds
targetOrTestSystem: Neuropeptide Y receptor type 1 (Homo sapiens); also: assay procedure not described here
Sequence (P25929 whole entry): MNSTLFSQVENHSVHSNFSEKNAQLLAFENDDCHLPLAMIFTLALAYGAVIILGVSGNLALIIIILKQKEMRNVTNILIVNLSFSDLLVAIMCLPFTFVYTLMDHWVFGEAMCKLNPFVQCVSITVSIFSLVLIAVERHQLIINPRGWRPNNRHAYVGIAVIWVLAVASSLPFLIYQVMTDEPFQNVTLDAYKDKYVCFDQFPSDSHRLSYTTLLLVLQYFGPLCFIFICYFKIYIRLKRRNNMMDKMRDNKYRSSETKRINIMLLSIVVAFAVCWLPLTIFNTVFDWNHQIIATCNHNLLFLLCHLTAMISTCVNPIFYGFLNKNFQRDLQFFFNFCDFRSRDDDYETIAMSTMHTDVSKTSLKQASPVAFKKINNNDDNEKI

Past entries and their recorded results:
• CCCCC(C)(O)C/C=C/[C@H]1[C@H](O)CC(=O)[C@@H]1CCCCCCC(=O)OC (stereo not given in full) = > 30 µM
• CC(C)NCC1CCc2cc(CO)c([N+](=O)[O-])cc2N1 (stereo not given) = > 10 µM
• C[N+](C)(C)CCOC(N)=O = > 10 µM
• CCNC(C)Cc1cccc(C(F)(F)F)c1 (stereo not given) = > 30 µM

Consider the record given below.
Query block: Requested read-out AC50, target or system Neuropeptide Y receptor type 1 (Homo sapiens), entry Cc1cccc(C)c1NC(=O)C1CCCCN1C (stereo not given) [MEPIVACAINE]; also: assay procedure not described here
Result block: > 30 µM

----------
targetOrTestSystem: Histamine H2 receptor (Homo sapiens); also: assay procedure not described here
Sequence (P25021 whole entry): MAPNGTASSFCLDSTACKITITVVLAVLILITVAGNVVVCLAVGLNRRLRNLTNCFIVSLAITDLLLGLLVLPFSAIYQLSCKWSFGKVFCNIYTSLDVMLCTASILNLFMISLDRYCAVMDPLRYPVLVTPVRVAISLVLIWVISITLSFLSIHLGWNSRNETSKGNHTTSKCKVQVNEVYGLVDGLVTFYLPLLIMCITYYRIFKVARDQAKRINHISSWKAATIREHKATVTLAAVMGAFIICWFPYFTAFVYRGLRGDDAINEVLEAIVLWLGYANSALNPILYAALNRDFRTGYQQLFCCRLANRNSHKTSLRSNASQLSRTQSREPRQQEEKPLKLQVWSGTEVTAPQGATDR
Type: functional, cell-based
# AC50 annotations

Examples with their reported AC50 follow.
• Nc1nc2ccc(OC(F)(F)F)cc2s1 [RILUZOLE] = > 30 µM
• CCC[C@@H]1C[C@@H](C(=O)N[C@@H]([C@H]2O[C@H](SC)[C@H](O)[C@@H](O)[C@H]2O)[C@H](C)Cl)N(C)C1 [CLINDAMYCIN] = > 10 µM
• [H]/N=C(/N)c1ccc(NCc2nc3cc(C(=O)N(CCC(=O)O)c4ccccn4)ccc3n2C)cc1 [DABIGATRAN] = > 30 µM

# evaluate next
Query block: # input compound: NS(=O)(=O)c1cc2c(cc1Cl)NC(CC1CCCC1)NS2(=O)=O (centres undefined) [CYCLOPENTHIAZIDE] ; wanted: its AC50
Result block: > 30 µM

----------
targetOrTestSystem: Beta-1 adrenergic receptor (Homo sapiens, UniProt P08588); also: assay procedure not described here
Sequence (P08588 whole entry): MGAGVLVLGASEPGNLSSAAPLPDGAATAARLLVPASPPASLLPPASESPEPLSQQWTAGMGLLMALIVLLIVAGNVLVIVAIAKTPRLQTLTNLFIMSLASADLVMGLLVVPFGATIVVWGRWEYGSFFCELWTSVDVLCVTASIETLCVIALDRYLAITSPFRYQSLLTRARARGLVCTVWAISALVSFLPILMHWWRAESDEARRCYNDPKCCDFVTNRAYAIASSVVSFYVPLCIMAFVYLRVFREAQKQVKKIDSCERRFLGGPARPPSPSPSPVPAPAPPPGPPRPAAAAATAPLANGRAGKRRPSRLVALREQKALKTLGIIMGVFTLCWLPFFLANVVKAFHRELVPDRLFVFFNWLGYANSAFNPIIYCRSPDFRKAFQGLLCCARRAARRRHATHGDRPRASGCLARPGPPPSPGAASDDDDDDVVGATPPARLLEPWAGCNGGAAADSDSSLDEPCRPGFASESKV
Assay type: functional
Recorded measurements of AC50, one per entry

• CC(=O)O[C@@]12CO[C@@H]1C[C@H](O)[C@@]1(C)C(=O)[C@H](O)C3=C(C)[C@@H](OC(=O)[C@H](O)[C@@H](NC(=O)OC(C)(C)C)c4ccccc4)C[C@@](O)([C@@H](OC(=O)c4ccccc4)[C@H]21)C3(C)C [DOCETAXEL ANHYDROUS] = > 30 µM

Query block: What value of AC50 has been recorded for this entry: CN1CCN(C(=O)OC2c3nccnc3C(=O)N2c2ccc(Cl)cn2)CC1 (configuration not stated) [ZOPICLONE]
Result block: > 30 µM

Query block: What does the data say about its AC50? Entry: CCCCCCCCCCCC[N+](C)(C)CCOc1ccccc1 [DOMIPHEN]
Result block: 3.1 µM

Query block: AC50 lookup needed for O=C(Nc1ccccc1)OCC(CN1CCCCC1)OC(=O)Nc1ccccc1 (configuration not stated) [DIPERODON] , thanks.
Result block: > 10 µM

Query block: Would you mind telling me what AC50 value was observed for CCC(=O)OCC(=O)[C@@]1(OC(=O)CC)[C@H](C)C[C@H]2[C@H]3[C@H]([C@@H](O)C[C@@]21C)[C@@]1(C)C=CC(=O)C=C1C[C@H]3Cl [ALCLOMETASONE DIPROPIONATE] ?
Result block: > 30 µM

Query block: # AC50 lookup, item CN1CCC2=C(C1)C(c1ccccc1)c1ccccc12 (configuration not stated) [PHENINDAMINE]
Result block: > 10 µM

Query block: Would you kindly share the measured AC50 for Cc1cccc(C)c1NC(=O)C1CCCCN1C (configuration not stated) [MEPIVACAINE] ?
Result block: > 30 µM
